experimentalTarget: PfRH5 of Plasmodium falciparum strain Cam3.II (on live parasites) (Plasmodium falciparum)
assay: cell-based or functional assay
Items are presented alongside their recorded Max growth inhibition (%) Cam3.II.
The reply should be a number in %, with the unit left off.

binder: H1H29138P (antibody, V domains shown) VH: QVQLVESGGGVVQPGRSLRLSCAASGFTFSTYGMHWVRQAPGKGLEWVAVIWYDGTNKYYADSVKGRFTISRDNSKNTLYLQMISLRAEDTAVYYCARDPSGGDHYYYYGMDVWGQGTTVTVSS VL: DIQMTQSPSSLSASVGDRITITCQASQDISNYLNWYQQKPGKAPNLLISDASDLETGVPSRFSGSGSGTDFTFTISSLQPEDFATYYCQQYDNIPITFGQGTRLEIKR
Max growth inhibition (%) Cam3.II: 48.7

binder: H1H29125P (antibody, V domains shown) VH: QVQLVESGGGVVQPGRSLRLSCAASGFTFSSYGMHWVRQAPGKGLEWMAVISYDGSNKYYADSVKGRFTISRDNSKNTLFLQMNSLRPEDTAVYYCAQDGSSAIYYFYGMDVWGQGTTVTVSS VL: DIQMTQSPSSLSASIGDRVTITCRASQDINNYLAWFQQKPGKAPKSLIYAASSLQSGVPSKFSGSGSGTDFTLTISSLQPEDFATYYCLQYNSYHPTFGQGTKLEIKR
Max growth inhibition (%) Cam3.II: 42.7

binder: H1H29100P (antibody, V domains shown) VH: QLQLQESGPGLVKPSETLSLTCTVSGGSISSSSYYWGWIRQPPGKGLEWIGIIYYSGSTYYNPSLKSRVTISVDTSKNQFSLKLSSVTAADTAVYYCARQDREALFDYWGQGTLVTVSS VL: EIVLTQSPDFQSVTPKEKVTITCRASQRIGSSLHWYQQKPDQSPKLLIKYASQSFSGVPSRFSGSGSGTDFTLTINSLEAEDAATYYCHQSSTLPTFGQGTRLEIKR
Max growth inhibition (%) Cam3.II: 52.4

// next entry
Inquiry: Provide measured Max growth inhibition (%) Cam3.II value, entry: H1H29104P (antibody, V domains shown) VH: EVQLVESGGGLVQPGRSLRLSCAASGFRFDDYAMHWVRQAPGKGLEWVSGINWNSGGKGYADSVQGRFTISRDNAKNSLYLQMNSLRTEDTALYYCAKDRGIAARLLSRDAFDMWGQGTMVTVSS VL: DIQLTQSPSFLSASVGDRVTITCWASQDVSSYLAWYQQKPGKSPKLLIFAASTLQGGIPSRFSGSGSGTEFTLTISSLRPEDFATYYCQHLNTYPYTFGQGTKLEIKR
Reply text: 50
